The values you see were collected from the supplement of paper PMC10307832.

# Tested on: LOU-NH91
# TEST DETAILS: relative viability (nuclei count vs DMSO), 5 days (fraction); higher = more cells survive
# CONDITION LABEL: first compound 2 µM
relative viability values for the compounds below.
Reply briefly: the number, and no unit.

COMPOUND	relative viability
CN1CCN(CCOc2cc(OC3CCOCC3)c3c(Nc4c(Cl)ccc5c4OCO5)ncnc3c2)CC1 [Saracatinib] + C[C@@H](Oc1cc(-c2cnn(C3CCNCC3)c2)cnc1N)c1c(Cl)ccc(F)c1Cl [Crizotinib] (partner 1 µM)	0.458

So what relative viability did CN1CCN(CCOc2cc(OC3CCOCC3)c3c(Nc4c(Cl)ccc5c4OCO5)ncnc3c2)CC1 [Saracatinib] + CC1(C)CCC(c2ccc(Cl)cc2)=C(CN2CCN(c3ccc(C(=O)NS(=O)(=O)c4ccc(N[C@H](CCN5CCOCC5)CSc5ccccc5)c(S(=O)(=O)C(F)(F)F)c4)cc3)CC2)C1 [Navitoclax] (partner 0.5 µM) get with LOU-NH91?
0.361

And Cc1csc(=NC2CCCCC2)n1/N=C/c1ccc(O)c(O)c1O [MIM1] + C[C@]1(O)C[C@@H](c2nc(-c3ccc4ccc(-c5ccccc5)nc4c3)c3c(N)nccn32)C1 [Linsitinib] (partner 1 µM) ?
0.728

And Cc1csc(=NC2CCCCC2)n1/N=C/c1ccc(O)c(O)c1O [MIM1] + CC(=O)c1c(C)c2cnc(Nc3ccc(N4CCNCC4)cn3)nc2n(C2CCCC2)c1=O [Palbociclib] (partner 0.5 µM) ?
0.516

----------
# Test system: CAL-12T
# TEST DETAILS: relative viability (nuclei count vs DMSO), 5 days (fraction); higher = more cells survive
# CONDITION LABEL: first compound 0.02 µM
PROPERTY NAME: relative viability
Reply briefly: the number, and no unit.

COMPOUND	relative viability
CN1CCN(CCOc2cc(OC3CCOCC3)c3c(Nc4c(Cl)ccc5c4OCO5)ncnc3c2)CC1 [Saracatinib] + CS(=O)(=O)CCNCc1ccc(-c2ccc3ncnc(Nc4ccc(OCc5cccc(F)c5)c(Cl)c4)c3c2)o1 [Lapatinib] (partner 2 µM)	0.675
CN1CCN(CCOc2cc(OC3CCOCC3)c3c(Nc4c(Cl)ccc5c4OCO5)ncnc3c2)CC1 [Saracatinib] + N=C(N)NC(=N)NCCc1ccccc1 [Phenformin] (partner 250 µM)	0.608
CCNC(=O)c1noc(-c2cc(C(C)C)c(O)cc2O)c1-c1ccc(CN2CCOCC2)cc1 [Luminespib] + N=C(N)NC(=N)NCCc1ccccc1 [Phenformin] (partner 250 µM)	0.15

So what relative viability did CCNC(=O)c1noc(-c2cc(C(C)C)c(O)cc2O)c1-c1ccc(CN2CCOCC2)cc1 [Luminespib] + COc1cccc2cc(-c3nc([C@H]4CC[C@H](C(=O)O)CC4)n4ncnc(N)c34)[nH]c12 [OSI-027] (partner 0.5 µM) get with CAL-12T?
0.21

And CCNC(=O)c1noc(-c2cc(C(C)C)c(O)cc2O)c1-c1ccc(CN2CCOCC2)cc1 [Luminespib] + Cc1cc(Nc2cc(N3CCN(C)CC3)nc(Sc3ccc(NC(=O)C4CC4)cc3)n2)n[nH]1 [Tozasertib] (partner 0.1 µM) ?
0.211

And CCNC(=O)c1noc(-c2cc(C(C)C)c(O)cc2O)c1-c1ccc(CN2CCOCC2)cc1 [Luminespib] + C[C@]1(O)C[C@@H](c2nc(-c3ccc4ccc(-c5ccccc5)nc4c3)c3c(N)nccn32)C1 [Linsitinib] (partner 1 µM) ?
0.72

----------
relative viability values for the molecules below.
# Test system: COR-L 105
# TEST DETAILS: relative viability (nuclei count vs DMSO), 5 days (fraction); higher = more cells survive
# CONDITION LABEL: first compound 0.001 µM
Reply briefly: the number, and no unit.

Some solved cases for reference:
MOLECULE	RESULT NUMBER
Cc1cn(-c2cc(NC(=O)c3ccc(C)c(Nc4nccc(-c5cccnc5)n4)c3)cc(C(F)(F)F)c2)cn1 [Nilotinib] + COc1cc2c(Oc3ccc(NC(=O)C4(C(=O)Nc5ccc(F)cc5)CC4)cc3F)ccnc2cc1OCCCN1CCOCC1 [Foretinib] (partner 0.25 µM)	1.08
Cc1cn(-c2cc(NC(=O)c3ccc(C)c(Nc4nccc(-c5cccnc5)n4)c3)cc(C(F)(F)F)c2)cn1 [Nilotinib] + CC1(C)CCC(c2ccc(Cl)cc2)=C(CN2CCN(c3ccc(C(=O)NS(=O)(=O)c4ccc(N[C@H](CCN5CCOCC5)CSc5ccccc5)c(S(=O)(=O)C(F)(F)F)c4)cc3)CC2)C1 [Navitoclax] (partner 0.5 µM)	0.709
Cc1cn(-c2cc(NC(=O)c3ccc(C)c(Nc4nccc(-c5cccnc5)n4)c3)cc(C(F)(F)F)c2)cn1 [Nilotinib] + O=C(CCCCCCC(=O)Nc1ccccc1)NO [Vorinostat] (partner 1 µM)	0.744
Cc1cn(-c2cc(NC(=O)c3ccc(C)c(Nc4nccc(-c5cccnc5)n4)c3)cc(C(F)(F)F)c2)cn1 [Nilotinib] + N=C(N)NC(=N)NCCc1ccccc1 [Phenformin] (partner 250 µM)	0.428
Cc1cn(-c2cc(NC(=O)c3ccc(C)c(Nc4nccc(-c5cccnc5)n4)c3)cc(C(F)(F)F)c2)cn1 [Nilotinib] + Nc1nc2[nH]cc(CCc3ccc(C(=O)N[C@@H](CCC(=O)O)C(=O)O)cc3)c2c(=O)[nH]1 [Pemetrexed] (partner 0.2 µM)	0.975

So what relative viability did Cc1cn(-c2cc(NC(=O)c3ccc(C)c(Nc4nccc(-c5cccnc5)n4)c3)cc(C(F)(F)F)c2)cn1 [Nilotinib] + CS(=O)(=O)CCNCc1ccc(-c2ccc3ncnc(Nc4ccc(OCc5cccc(F)c5)c(Cl)c4)c3c2)o1 [Lapatinib] (partner 2 µM) get with COR-L 105?
0.418

And Cc1cn(-c2cc(NC(=O)c3ccc(C)c(Nc4nccc(-c5cccnc5)n4)c3)cc(C(F)(F)F)c2)cn1 [Nilotinib] + CC(C)C[C@H](NC(=O)[C@H](Cc1ccccc1)NC(=O)c1cnccn1)B(O)O [Bortezomib] (partner 0.002 µM) ?
0.903

And Cc1cn(-c2cc(NC(=O)c3ccc(C)c(Nc4nccc(-c5cccnc5)n4)c3)cc(C(F)(F)F)c2)cn1 [Nilotinib] + Nc1ncn([C@H]2C[C@H](O)[C@@H](CO)O2)c(=O)n1 [Decitabine] (partner 2 µM) ?
0.735

----------
# Test system: COR-L 105
# TEST DETAILS: relative viability (nuclei count vs DMSO), 5 days (fraction); higher = more cells survive
# CONDITION LABEL: first compound 0.03162 µM
relative viability values for the compounds below.
Reply briefly: the number, and no unit.

Some solved cases for reference:
COMPOUND	relative viability
Cc1cn(-c2cc(NC(=O)c3ccc(C)c(Nc4nccc(-c5cccnc5)n4)c3)cc(C(F)(F)F)c2)cn1 [Nilotinib] + Nc1ncn([C@H]2C[C@H](O)[C@@H](CO)O2)c(=O)n1 [Decitabine] (partner 2 µM)	0.732
Cc1cn(-c2cc(NC(=O)c3ccc(C)c(Nc4nccc(-c5cccnc5)n4)c3)cc(C(F)(F)F)c2)cn1 [Nilotinib] + O=C(CCCCCCC(=O)Nc1ccccc1)NO [Vorinostat] (partner 1 µM)	0.76
Cc1cn(-c2cc(NC(=O)c3ccc(C)c(Nc4nccc(-c5cccnc5)n4)c3)cc(C(F)(F)F)c2)cn1 [Nilotinib] + Cc1cc(Nc2cc(N3CCN(C)CC3)nc(Sc3ccc(NC(=O)C4CC4)cc3)n2)n[nH]1 [Tozasertib] (partner 0.1 µM)	0.329
Cc1cn(-c2cc(NC(=O)c3ccc(C)c(Nc4nccc(-c5cccnc5)n4)c3)cc(C(F)(F)F)c2)cn1 [Nilotinib] + N=C(N)NC(=N)NCCc1ccccc1 [Phenformin] (partner 250 µM)	0.409
Cc1cn(-c2cc(NC(=O)c3ccc(C)c(Nc4nccc(-c5cccnc5)n4)c3)cc(C(F)(F)F)c2)cn1 [Nilotinib] + CC(=O)c1c(C)c2cnc(Nc3ccc(N4CCNCC4)cn3)nc2n(C2CCCC2)c1=O [Palbociclib] (partner 0.5 µM)	0.399

Reported relative viability, compound Cc1cn(-c2cc(NC(=O)c3ccc(C)c(Nc4nccc(-c5cccnc5)n4)c3)cc(C(F)(F)F)c2)cn1 [Nilotinib] + Nc1nc2[nH]cc(CCc3ccc(C(=O)N[C@@H](CCC(=O)O)C(=O)O)cc3)c2c(=O)[nH]1 [Pemetrexed] (partner 0.2 µM) : ____
1.13

And Cc1cn(-c2cc(NC(=O)c3ccc(C)c(Nc4nccc(-c5cccnc5)n4)c3)cc(C(F)(F)F)c2)cn1 [Nilotinib] + C[C@]1(O)C[C@@H](c2nc(-c3ccc4ccc(-c5ccccc5)nc4c3)c3c(N)nccn32)C1 [Linsitinib] (partner 1 µM) ?
0.849

----------
relative viability values for the compounds below.
# Tested on: PC-3 [JPC-3]
# TEST DETAILS: relative viability (nuclei count vs DMSO), 5 days (fraction); higher = more cells survive
# CONDITION LABEL: first compound 6.325 µM
Reply briefly: the number, and no unit.

Some solved cases for reference:
COMPOUND	TEST TARGET	PROPERTY NAME	RESULT NUMBER
Cc1csc(=NC2CCCCC2)n1/N=C/c1ccc(O)c(O)c1O [MIM1] + CS(=O)(=O)CCNCc1ccc(-c2ccc3ncnc(Nc4ccc(OCc5cccc(F)c5)c(Cl)c4)c3c2)o1 [Lapatinib] (partner 2 µM)	PC-3 [JPC-3]	relative viability	0.45
Cc1csc(=NC2CCCCC2)n1/N=C/c1ccc(O)c(O)c1O [MIM1] + CC(=O)Nc1cccc(-n2c(=O)n(C3CC3)c(=O)c3c(Nc4ccc(I)cc4F)n(C)c(=O)c(C)c32)c1 [Trametinib] (partner 0.02 µM)	PC-3 [JPC-3]	relative viability	0.521
Cc1csc(=NC2CCCCC2)n1/N=C/c1ccc(O)c(O)c1O [MIM1] + Cc1nc(NC(=O)N2CCC[C@H]2C(N)=O)sc1-c1ccnc(C(C)(C)C(F)(F)F)c1 [Alpelisib] (partner 2 µM)	PC-3 [JPC-3]	relative viability	0.884

Next compound, please.
Reported relative viability, compound Cc1csc(=NC2CCCCC2)n1/N=C/c1ccc(O)c(O)c1O [MIM1] + O=C(c1cc(Cc2n[nH]c(=O)c3ccccc23)ccc1F)N1CCN(C(=O)C2CC2)CC1 [Olaparib] (partner 8 µM) : ____
0.871
